# assay_system: human recombinant ETA receptor (Homo sapiens)
# Sequence (P25101 21-427): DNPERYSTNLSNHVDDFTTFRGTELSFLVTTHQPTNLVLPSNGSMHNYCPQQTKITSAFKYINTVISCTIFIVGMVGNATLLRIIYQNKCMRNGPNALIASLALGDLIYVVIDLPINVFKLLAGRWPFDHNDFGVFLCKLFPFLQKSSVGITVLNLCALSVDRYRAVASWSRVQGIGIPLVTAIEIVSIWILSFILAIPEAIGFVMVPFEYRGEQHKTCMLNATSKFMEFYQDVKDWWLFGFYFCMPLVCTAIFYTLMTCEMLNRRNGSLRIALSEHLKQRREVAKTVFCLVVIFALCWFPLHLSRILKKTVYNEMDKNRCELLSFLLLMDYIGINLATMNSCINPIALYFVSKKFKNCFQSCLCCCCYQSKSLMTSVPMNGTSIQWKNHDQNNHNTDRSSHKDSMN
# protocol_summary: Inhibition of [125I]ET-1 binding to membranes from CHO cells carrying human ETA receptors
parameter_measured: IC50 (nM)
Kindly provide the numeric value in nM only, without the unit symbol.

Solved cases (5 shown):
COc1ccccc1Oc1c(NS(=O)(=O)Nc2ccc(C)cn2)nc(-c2ccncc2)nc1OC	1160
CN(Cc1ccccc1)S(=O)(=O)Nc1ncnc(OCCOc2ncc(Br)cn2)c1-c1ccc(Cl)cc1	3.6
CSc1cnc(OCCOc2ncnc(NS(=O)(=O)NC3CC3)c2-c2ccc(Br)cc2)nc1	1.16
COc1cnc(OCCOc2ncnc(NS(=O)(=O)NCc3ccccc3)c2-c2ccc(Cl)cc2)nc1	18.5
COc1ccccc1Oc1c(NS(=O)(=O)NCc2ccccc2)nc(-c2cnccn2)nc1OCCOc1ncc(Br)cn1	23.6

Could you share which IC50 value was measured for `COc1ccccc1Oc1c(NS(=O)(=O)NCc2ccc(Cl)cc2)nc(-c2ncccn2)nc1OCCOC(=O)Nc1ccccn1` ? 4.9

Given the compound `COc1cnc(OCCOc2nc(-c3ncccn3)nc(NS(=O)(=O)NCc3ccc(F)cc3)c2Oc2ccccc2OC)nc1` , what is its reported IC50? 3.1
